The measurements presented in this section are drawn from PubChem BioAssay (NCI).

So I've got a bunch of molecules here, and I need their GI50 values.
System: NCI-H522 lung
ASSAY EXPLANATION: NCI tumour cell line growth inhibition, 48 h

Tell me the measured GI50 of O=C(C[n+]1cccc2cc(Cl)ccc21)c1ccc2c(c1)CCCC2 , please.
1.51 µM

I would be grateful if you could share the reported GI50 for Clc1ccc(C(Cn2ccnc2)OCc2ccsc2Cl)c(Cl)c1 (stereo not given) .
2.7 µM

Query: GI50; subject: CC1=C(C(=O)Nc2ccc(F)c(Cl)c2)C(c2cccc(Cl)c2)NC(=S)N1 (stereo not given)
2.13 µM

Tell me the measured GI50 of Oc1c(Br)cc(Br)c2ccc(Cn3cc(-c4ccc(C(F)(F)F)cc4)nn3)nc12 , please.
1.08 µM

What does the record list as GI50 for O=C1/C(=C/c2ccccc2)CN(C(=O)CCN2CCC(=NO)CC2)C/C1=C\c1ccccc1 ?
1.6 µM

###

System: OVCAR-3 ovarian
ASSAY EXPLANATION: NCI tumour cell line growth inhibition, 48 h
MEASURED QUANTITY: TGI

For the compound C[CH2][Sn]([CH2]C)([O]C(=O)c1ccccc1F)[O]C(=O)c1ccccc1F , what TGI is on record?
> 100 µM

Any idea what TGI was measured for OC1CCCN(C2(c3cccs3)CCCCC2)C1 (stereo not given) ?
> 100 µM

Entry under review: COc1cc(/C=C/C(=O)c2ccc(Nc3nc(NCCO)nc(N4CCOCC4)n3)cc2)cc(OC)c1OC . Reported TGI?
4.26 µM

Bench note: what TGI did CCn1c(O)c(C=Nc2ccccc2)s/c1=N/Nc1ncc(CC(=O)Nc2ccccc2C)s1 show?
> 100 µM

What does the record list as TGI for COC(=O)C(Cc1c[nH]c2ccccc12)NP(=O)(O)OCC1OC(n2ccc(N)nc2=O)C(O)C1O (stereo not given) ?
> 100 µM

Value lookup for TGI; key = Clc1ccc(COc2ccccc2/C=N/c2c(-c3ccco3)nc3ccccn23)c(Cl)c1
> 100 µM

Which value of TGI has been reported for Nc1ncnc2c1ncc(=O)n2C1CC(O)C(CO)O1 (stereo not given) in the records?
> 100 µM

Suppose we examine the compound COc1cc(/C=C(\NC(=O)c2ccccc2)c2nc3[nH]c(=S)[nH]c(=O)c3[nH]2)cc(OC)c1OC ; what TGI value has been reported?
> 100 µM

TGI lookup needed for O=C1/C=C/[C@@H](O)[C@@H]2C[C@@H](O)C[C@H]2/C=C/CCC[C@H](CCOCc2ccccc2)O1 , thanks.
0.187 µM

Item O=c1[nH]c(=O)n(COCCOCc2ccccc2)cc1Nc1ccccc1 has what recorded TGI?
> 100 µM

Endpoint output: TGI of COc1ccc2cc(C#Cc3ccc(-n4c(/C=C/c5cc(OC)c(OC)c(OC)c5)nc5ccccc5c4=O)c(C)c3)ccc2c1 . Value?
> 100 µM

Fill blank: measured TGI of the compound Cc1ncc([N+](=O)[O-])n1CCn1ccnc1[N+](=O)[O-] is ____.
> 100 µM

// TGI lookup, key: ClCc1ccccc1Cn1cnc2c(Cl)nc(Cl)nc21
1.17 µM

Name the reported TGI value associated with the compound COC1=C(OC)C(=O)C(CCCCCCCCCC[P+](c2ccccc2)(c2ccccc2)c2ccccc2)=C(C)C1=O
1.1 µM

Dear colleague, I am looking for the recorded TGI of the following compound: O=C1/C(=C\c2cccc(Oc3ccccc3)c2)SC(c2ccccc2)N1c1ccccc1Cl (stereo not given)
> 100 µM

What TGI value was documented for this compound, NC1=NC(=O)[C@H](Cc2c[nH]c3ccccc23)N1C(=O)OCc1ccccc1 ?
> 100 µM

Name the recorded TGI for Clc1ccc2c(N3CCN(c4ccnc(NC5CCCCC5)n4)CC3)ccnc2c1 .
3.49 µM

// query TGI value for entry Cc1ccccc1OC(C)C(=O)NN1C(=O)CC(=O)NC1=S (stereo not given)
> 100 µM

Entry NS(=O)(=O)c1ccc(NC(=S)/N=C/c2c(O)c3ccccc3oc2=O)cc1 : reported TGI = ?
> 100 µM

Quick one: TGI for Cc1cn(CCCC2=NCCCN2)c(=O)[nH]c1=O ?
> 100 µM

###

Hi there, I'd appreciate the recorded TGI for every entry that follows.
Tested on: PC-3 prostate
ASSAY EXPLANATION: NCI tumour cell line growth inhibition, 48 h
Where a SMILES comes first, the peptide text is derived from it. Bridges are numbered along the chain shown (N, C = ends). [ ]: non-standard residue; d: D form. The star is where a group is joined. ξ: configuration not given here. X26 = O=C(/C=C/C=C/C=C/C=C/C=C/C(=O)*)NC1=C(O)CCC1=O; Pro(4R-Me) = C[C@H]1CN[C@H](C(=O)O)C1; NMeA = CN[C@@H](C)C(=O)O; ξF = NC(Cc1ccccc1)C(=O)O; ξA = CC(N)C(=O)O

I would be grateful if you could share the reported TGI for CC1NC(=O)[C@H](C)N(C)C(=O)[C@@H]2CCCN2C(=O)[C@@H](NC(=O)C(Cc2ccccc2)NC(=O)/C=C/C=C/C=C/C=C/C=C/C(=O)NC2=C(O)CCC2=O)COC(=O)[C@@H]2C[C@@H](C)CN2C1=O (stereo partly drawn) (X26-[ξF]SP[NMeA][ξA][Pro(4R-Me)]; ester 2-C) .
> 100 µM

Value lookup for TGI; key = N#Cc1c(N)c2c(c(-c3ccccc3)c1-c1ccccc1)C(=O)N(N)C2=O
> 100 µM

What TGI value was documented for this molecule, C[CH2][Sn]([CH2]C)([O]C(=O)c1ccccc1F)[O]C(=O)c1ccccc1F ?
> 100 µM

Look up TGI for this molecule: Cc1cn(CCCC2=NCCCN2)c(=O)[nH]c1=O
> 100 µM

For the molecule CCOC(=O)C1=c2[nH]c3cccc4cccc(c43)n2C(=O)CC1 , what TGI is on record?
> 100 µM

Given CC(C)=CCNc1ncnc2c1c(C#N)cn2C1OC(CO)C(O)C1O (stereo not drawn) , state its recorded TGI.
> 100 µM

Quick check: TGI of NNC1=Nc2ccc(Cl)cc2C(=S)N2CSCC12 (stereo not drawn) ?
> 100 µM

Given the molecule COc1ccc2c(c1)/C(=N/OC(C)=O)c1c-2c(Nc2cccc(/C(C)=N/OC(C)=O)c2)nc2ccccc12 , what is its reported TGI?
41.5 µM

TGI for CCC(=O)Nc1ccc(NCC(=O)Nc2ccc(Cl)cc2)cc1 ?
31.8 µM

I'd like to know its TGI. The molecule in question is COc1ccc(/C=C2/SC(c3ccc(Cl)cc3)N(NC(=O)CCCCCCCCC(=O)NN3C(=O)/C(=C\c4ccc(OC)c(OC)c4)SC3c3ccc(Cl)cc3)C2=O)cc1OC (stereo not drawn)
> 100 µM

Value lookup for TGI; key = Cc1cc2c(O)c(c1)CN(Cc1ccccc1)Cc1cc(C)cc(c1O)CN(Cc1ccccc1)Cc1cc(C)cc(c1O)CN(Cc1ccccc1)C2
> 100 µM

What does the data say about its TGI? Entry: COc1ccc2[nH]c3c(C)c4ccncc4c(C)c3c2c1
2.02 µM

Looking for the measured TGI of CN(C)CCn1c(=O)c2ccc(NCCCN(C)CCCNc3ccc4c(=O)n(CCN(C)C)c(=O)n5c6ccccc6c(=O)c3c45)c3c(=O)c4ccccc4n(c1=O)c23 , can you help?
0.654 µM

Which measured TGI value corresponds to OC1CCCN(C2(c3cccs3)CCCCC2)C1 (stereo not drawn) ?
> 100 µM

Field request: TGI | item: S=C(S)NCCNC(=S)S.[Cu+2]
> 100 µM

Requested read-out: TGI. Entry: OCCCCC#Cc1ccccc1C#Cc1ccccn1
73.9 µM

Param item = O=C(C[n+]1cccc2cc(Cl)ccc21)c1ccc2c(c1)CCCC2 ; retrieve measured TGI.
3.61 µM

I would be grateful if you could share the reported TGI for Clc1ccc2c(N3CCN(c4ccnc(NC5CCCCC5)n4)CC3)ccnc2c1 .
3.3 µM

Look up TGI for this molecule: O=C1C=CC(=O)C(CNc2ccc(C(=O)OC34CC5CC(CC(C5)C3)C4)cc2)=C1Br
19 µM

Could you share which TGI value was measured for COc1ccc(-c2cn[nH]c2-c2cc(OC)c(OC)c(OC)c2)cc1OCc1ccccc1 ?
19.1 µM

Bench note: what TGI did Cc1ccc(C(=O)N/N=C(\N=Nc2cccc([N+](=O)[O-])c2)c2ccc(N(C)C)cc2)cc1 show?
> 100 µM

Item CCOC(=O)C1OC(=O)CC1C1(C(=O)OCC)C=CC(=O)O1 (stereo not drawn) has what recorded TGI?
> 100 µM

// query TGI value for entry Cc1cc(S(=O)(=O)n2cc[nH]c2=O)c(SCCCN(C)C)cc1Cl
> 100 µM

Using the record for C=C1CC2(CC(c3ccccc3OC)OC(c3ccccc3OC)C2)OC1=O (stereo not drawn) , report its TGI.
4.33 µM

TGI lookup needed for Nc1n[nH]c2cccc(C#Cc3cccc(NC(=O)c4ccc(N5CCOCC5)c(C(F)(F)F)c4)c3)c12 , thanks.
6.83 µM

Which TGI is listed for COC(=O)C(Cc1c[nH]c2ccccc12)NP(=O)(O)OCC1OC(n2ccc(N)nc2=O)C(O)C1O (stereo not drawn) ?
> 100 µM

Which measured TGI value corresponds to COc1nc(-c2c[nH]c3ccccc23)cnc1N ?
> 100 µM

Consider the molecule O=C(C1OC1c1ccc(F)cc1)C12CC3CC(CC(C3)C1)C2 (stereo not drawn) and give its measured TGI.
> 100 µM

GET /values?readout=TGI&item= CCOC(=O)C(COS(C)(=O)=O)(COS(C)(=O)=O)C(=O)OCC
> 100 µM

State the recorded TGI for this entry: CCCCCCCCCCc1c2nc(c(CCCCCCCCCC)c3ccc([nH]3)c(CCCCCCCCCC)c3ccc([nH]3)c(CCCCCCCCCC)c3nc1C=C3)C=C2
> 100 µM

I would be grateful if you could share the reported TGI for COc1ccc(/C=C2\N=C(N/N=C\C(O)C(O)C(O)C(O)CO)NC2=O)cc1 (stereo not drawn) .
69.5 µM

Give the measured TGI of Cc1ccccc1OC(C)C(=O)NN1C(=O)CC(=O)NC1=S (stereo not drawn) .
> 100 µM

Would you mind telling me what TGI value was observed for O=C1/C=C/[C@@H](O)[C@@H]2C[C@@H](O)C[C@H]2/C=C/CCC[C@H](CCOCc2ccccc2)O1 ?
> 100 µM

Sample O=C1C[C@@H](Sc2ccccc2)C2(OCCO2)C2ON3CCCC[C@H]3[C@H]12 (stereo partly drawn) — what was its TGI?
24.2 µM

Name the recorded TGI for O=c1n(-c2ccc(Cl)c(Cl)c2)c(=O)n(-c2ccc(Cl)c(Cl)c2)c(=O)n1-c1ccc(Cl)c(Cl)c1 .
4.72 µM

If you can, please state the reported TGI value of COC1=CC(=O)N(C(=O)C2CSC(C(CO)NC(=O)c3csc(/C=N/O)n3)=N2)C1 (stereo not drawn) .
> 100 µM

Consider the molecule CN(C)CCCNc1ccnc2cccc([N+](=O)[O-])c12 and give its measured TGI.
30.3 µM

Could you tell me which TGI is on file for CCCCCC(=O)Nc1n[nH]nc1C#N ?
> 100 µM
